test system: Escherichia coli TOP10; experiment: shrunken log2 fold change of peptide-encoding DNA abundance (4.5 h post-induction vs induction); higher = less antimicrobial activity (less host growth inhibition); conditions: time post-induction: 4.5 h; library: site-saturation at positions 5, 18, 19, 20
property.measured: shrunken log2 fold change

Reference set (3 entries):
[[record]]
record_sequence = "RRIRYRPPRLPRPRPRPISQPRP"
observed = -0.299

[[record]]
record_sequence = "RRIRLRPPRLPRPRPRPQQYPRP"
observed = -0.277

[[record]]
record_sequence = "RRIRSRPPRLPRPRPRPDRGPRP"
observed = -0.0384


Data point: "RRIRCRPPRLPRPRPRPGCLPRP" ; shrunken log2 fold change = 0.115

# sequence "RRIRNRPPRLPRPRPRPHQNPRP" ; its shrunken log2 fold change = -0.239

Per the records, this sequence ( "RRIRARPPRLPRPRPRPETDPRP" ) has shrunken log2 fold change equal to 0.764

Form field shrunken log2 fold change, entry "RRIRYRPPRLPRPRPRPYQQPRP" : -0.0715

Data point: "RRIRLRPPRLPRPRPRPFTFPRP" ; shrunken log2 fold change = 0.0545

Record "RRIRWRPPRLPRPRPRPWILPRP" . Reported shrunken log2 fold change: -0.19

In plain terms, "RRIRARPPRLPRPRPRPAWYPRP" has a documented shrunken log2 fold change of 0.0311

----------
tested on: Escherichia coli TOP10; test: shrunken log2 fold change of peptide-encoding DNA abundance (4.5 h post-induction vs induction); higher = less antimicrobial activity (less host growth inhibition); settings: time post-induction: 4.5 h; library: site-saturation at positions 5, 18, 19, 20
property.measured: shrunken log2 fold change

Take a look at these entries with their results.
[[record]]
record_sequence = "RRIRFRPPRLPRPRPRPTFCPRP"
observed = -0.152

[[record]]
record_sequence = "RRIRQRPPRLPRPRPRPDQEPRP"
observed = 0.0119

[[record]]
record_sequence = "RRIRARPPRLPRPRPRPNMEPRP"
observed = -0.0484

[[record]]
record_sequence = "RRIRDRPPRLPRPRPRPSKDPRP"
observed = -0.242

[[record]]
record_sequence = "RRIRLRPPRLPRPRPRPHSVPRP"
observed = -0.0683

[[record]]
record_sequence = "RRIRNRPPRLPRPRPRPHWHPRP"
observed = -0.65


// shrunken log2 fold change value for "RRIRERPPRLPRPRPRPSMQPRP" : -0.759

response.value for "RRIRTRPPRLPRPRPRPQQHPRP" (field: shrunken log2 fold change) = -0.37

----------
tested on: Escherichia coli TOP10; experiment: shrunken log2 fold change of peptide-encoding DNA abundance (4.5 h post-induction vs induction); higher = less antimicrobial activity (less host growth inhibition); conditions: time post-induction: 4.5 h; library: site-saturation at positions 5, 18, 19, 20
property.measured: shrunken log2 fold change
Respond numerically, and do not add a unit to the figure.

Would you please look over these solved cases?
[[record]]
record_sequence = "RRIRKRPPRLPRPRPRPVTEPRP"
observed = 0.42

[[record]]
record_sequence = "RRIRHRPPRLPRPRPRPMSVPRP"
observed = -0.294

[[record]]
record_sequence = "RRIRRRPPRLPRPRPRPMGFPRP"
observed = 0.317

[[record]]
record_sequence = "RRIRQRPPRLPRPRPRPHCPPRP"
observed = -0.0268


So for "RRIRYRPPRLPRPRPRPTTSPRP" , the logged shrunken log2 fold change turned out to be -0.382

Given item "RRIRVRPPRLPRPRPRPAKEPRP" , the value recorded as its shrunken log2 fold change is 0.226

The recorded shrunken log2 fold change for "RRIRVRPPRLPRPRPRPRTWPRP" is 0.0366

Measured shrunken log2 fold change, "RRIRYRPPRLPRPRPRPVMSPRP" : -0.233

----------
test system: Escherichia coli TOP10; assay: shrunken log2 fold change of peptide-encoding DNA abundance (4.5 h post-induction vs induction); higher = less antimicrobial activity (less host growth inhibition); conditions: time post-induction: 4.5 h; library: site-saturation at positions 5, 18, 19, 20
property.measured: shrunken log2 fold change
Lab note: jot down the number only; don't add units.

Consider the reported shrunken log2 fold change for these sequences:
[[record]]
record_sequence = "RRIRFRPPRLPRPRPRPHAFPRP"
observed = -0.411

[[record]]
record_sequence = "RRIRNRPPRLPRPRPRPSLTPRP"
observed = -0.266

[[record]]
record_sequence = "RRIRSRPPRLPRPRPRPFAIPRP"
observed = -0.638

[[record]]
record_sequence = "RRIRRRPPRLPRPRPRPFYHPRP"
observed = 0.0115

[[record]]
record_sequence = "RRIRKRPPRLPRPRPRPMLTPRP"
observed = 0.189

[[record]]
record_sequence = "RRIRCRPPRLPRPRPRPRVVPRP"
observed = 0.247

[[record]]
record_sequence = "RRIRGRPPRLPRPRPRPWHPPRP"
observed = 0.49

[[record]]
record_sequence = "RRIRIRPPRLPRPRPRPPISPRP"
observed = -0.391

[[record]]
record_sequence = "RRIRFRPPRLPRPRPRPDAPPRP"
observed = 0.421

[[record]]
record_sequence = "RRIRSRPPRLPRPRPRPLWAPRP"
observed = 0.206


Notebook: "RRIRMRPPRLPRPRPRPDCEPRP" , shrunken log2 fold change read as 2.29

shrunken log2 fold change in this record for "RRIRWRPPRLPRPRPRPAMGPRP" : 0.161

Measured shrunken log2 fold change of "RRIRHRPPRLPRPRPRPAYFPRP" : -0.833

The sequence listed as "RRIRPRPPRLPRPRPRPLFEPRP" has a reported shrunken log2 fold change of 0.163

For this sequence ( "RRIRFRPPRLPRPRPRPFTCPRP" ), measured shrunken log2 fold change is -0.271

Entry "RRIRFRPPRLPRPRPRPWMYPRP" — recorded shrunken log2 fold change = -0.673

----------
test system: Escherichia coli TOP10; test: shrunken log2 fold change of peptide-encoding DNA abundance (4.5 h post-induction vs induction); higher = less antimicrobial activity (less host growth inhibition); conditions: time post-induction: 4.5 h; library: site-saturation at positions 5, 18, 19, 20
Each entry below carries its recorded shrunken log2 fold change.
Keep it simple and answer with nothing but the number.

[[record]]
record_sequence = "RRIRDRPPRLPRPRPRPELQPRP"
observed = 0.072

[[record]]
record_sequence = "RRIRERPPRLPRPRPRPPDDPRP"
observed = 0.103

[[record]]
record_sequence = "RRIRDRPPRLPRPRPRPTCDPRP"
observed = 0.224

[[record]]
record_sequence = "RRIRFRPPRLPRPRPRPQCEPRP"
observed = 0.0491

[[record]]
record_sequence = "RRIRARPPRLPRPRPRPCTCPRP"
observed = -0.199


Notebook: "RRIRIRPPRLPRPRPRPGIQPRP" , shrunken log2 fold change read as -0.0834

Short answer for "RRIRFRPPRLPRPRPRPAKWPRP" : shrunken log2 fold change was 0.0975

So, "RRIRKRPPRLPRPRPRPTDDPRP" ? Its shrunken log2 fold change was 1.01

Notebook: "RRIRGRPPRLPRPRPRPGQHPRP" , shrunken log2 fold change read as 0.0185

----------
system: Escherichia coli TOP10; experiment: shrunken log2 fold change of peptide-encoding DNA abundance (4.5 h post-induction vs induction); higher = less antimicrobial activity (less host growth inhibition); conditions: time post-induction: 4.5 h; library: site-saturation at positions 5, 18, 19, 20;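 note: peptides expressed intracellularly from a pBAD plasmid library in pooled LB shake-flask culture, induced with 0.3% L-arabinose, DNA abundance read by NGS, three biological replicates, DESeq2 with apeglm shrinkage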
Use -0.003 as the dividing line for shrunken log2 fold change, with the line itself on the 1.0 side and lower values as 0.0.

[[record]]
record_sequence = "RRIRMRPPRLPRPRPRPSKDPRP"
system_tested = "Escherichia coli TOP10"
label_value = 1.0

[[record]]
record_sequence = "RRIRTRPPRLPRPRPRPKSVPRP"
system_tested = "Escherichia coli TOP10"
label_value = 0.0

[[record]]
record_sequence = "RRIRKRPPRLPRPRPRPGDPPRP"
system_tested = "Escherichia coli TOP10"
label_value = 1.0

[[record]]
record_sequence = "RRIRKRPPRLPRPRPRPWDGPRP"
system_tested = "Escherichia coli TOP10"
label_value = 0.0

[[record]]
record_sequence = "RRIRERPPRLPRPRPRPHHAPRP"
system_tested = "Escherichia coli TOP10"
label_value = 1.0


Decide: is the reported value of shrunken log2 fold change for "RRIRMRPPRLPRPRPRPCTYPRP" equal to or greater than -0.003?
1.0

Is reported shrunken log2 fold change greater than or equal to -0.003 here: "RRIRSRPPRLPRPRPRPYPRPRP"
0.0

Does the sequence "RRIRDRPPRLPRPRPRPCSSPRP" have recorded shrunken log2 fold change that is -0.003 or more?
1.0

Is shrunken log2 fold change for "RRIRYRPPRLPRPRPRPLWDPRP" at or above -0.003?
0.0

Is shrunken log2 fold change at least -0.003? Consider "RRIRRRPPRLPRPRPRPNSFPRP"
0.0

Say whether "RRIRCRPPRLPRPRPRPPSVPRP" shows shrunken log2 fold change of -0.003 or more.
1.0

Reported shrunken log2 fold change reaches at least -0.003 for "RRIRKRPPRLPRPRPRPCDKPRP" ?
1.0

Is the recorded value of shrunken log2 fold change equal to or greater than -0.003 for this sequence? "RRIRFRPPRLPRPRPRPFKVPRP"
0.0
